Give yeast fitness for every item shown.
B1: tRNA (parent)
chain: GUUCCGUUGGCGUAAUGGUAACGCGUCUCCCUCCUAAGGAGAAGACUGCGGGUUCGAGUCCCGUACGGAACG

Variants of: B1
Assay: yeast fitness relative to wild type (ratio to wild type); higher = fitter; tRNA-Arg(CCU), competitive growth, 37 C, YPD
Variants at the floor of the assay were thinned out.

-- ask Write down yeast fitness measured for item A40G G58A A69U
-- reply 1.04

-- ask Write down yeast fitness measured for item C30G C33U A45U
-- reply 0.57

-- ask Write down yeast fitness measured for item G17C G25C U26A C29G A36U G39A C46U C55U
-- reply ≤ 0.5

-- ask Write down yeast fitness measured for item C5U U13A C46A C62U C66U
-- reply ≤ 0.5

-- ask Write down yeast fitness measured for item G12A A57C
-- reply 0.618

-- ask Write down yeast fitness measured for item U2A U13A U35G U64A A65C
-- reply ≤ 0.5

-- ask Write down yeast fitness measured for item U19G C22G C34U C61G
-- reply ≤ 0.5

-- ask Write down yeast fitness measured for item U2C C29U
-- reply 0.81

-- ask Write down yeast fitness measured for item C24G G41A C46U A65G
-- reply ≤ 0.5

-- ask Write down yeast fitness measured for item U16C C22U A37U C49A C62U
-- reply 0.6

-- ask Write down yeast fitness measured for item U2A C5G
-- reply 0.728

-- ask Write down yeast fitness measured for item A21U C34A G50C
-- reply 0.535

-- ask Write down yeast fitness measured for item C5A U26A A42C
-- reply ≤ 0.5

-- ask Write down yeast fitness measured for item C5U C22U G48C C66U
-- reply ≤ 0.5

-- ask Write down yeast fitness measured for item C30U C34G G39A C49G C61U
-- reply ≤ 0.5

-- ask Write down yeast fitness measured for item U28G G56C
-- reply 0.655

-- ask Write down yeast fitness measured for item A14G C24U C30U C60A
-- reply ≤ 0.5

-- ask Write down yeast fitness measured for item A37C A57C
-- reply 0.543

-- ask Write down yeast fitness measured for item G23C C60A A70U
-- reply 0.536

-- ask Write down yeast fitness measured for item C31U U35A G51C
-- reply ≤ 0.5

-- ask Write down yeast fitness measured for item G17A C22U U59A
-- reply ≤ 0.5

-- ask Write down yeast fitness measured for item U13C G44A C49U
-- reply 0.799

-- ask Write down yeast fitness measured for item C4G A14C C24U C49U
-- reply ≤ 0.5

-- ask Write down yeast fitness measured for item U2A A14U A20C U35A G38C A69U
-- reply ≤ 0.5

-- ask Write down yeast fitness measured for item C11U A45U G58C A69C
-- reply ≤ 0.5

-- ask Write down yeast fitness measured for item C27G C31G C46A
-- reply 0.932

-- ask Write down yeast fitness measured for item G9C A15G
-- reply 0.633

-- ask Write down yeast fitness measured for item G9C U28A G50C U59A
-- reply 0.685

-- ask Write down yeast fitness measured for item C24G C29A G50C A57C
-- reply ≤ 0.5

-- ask Write down yeast fitness measured for item G6A G51C A57G C61U A65C
-- reply ≤ 0.5

-- ask Write down yeast fitness measured for item U28G C29A G41C A43U C66G
-- reply 0.595
